# test.system: cMet-Fc (HGFR ectodomain fused to human IgG1 Fc) (human) (UniProt P08581)
# Sequence (P08581 25-932): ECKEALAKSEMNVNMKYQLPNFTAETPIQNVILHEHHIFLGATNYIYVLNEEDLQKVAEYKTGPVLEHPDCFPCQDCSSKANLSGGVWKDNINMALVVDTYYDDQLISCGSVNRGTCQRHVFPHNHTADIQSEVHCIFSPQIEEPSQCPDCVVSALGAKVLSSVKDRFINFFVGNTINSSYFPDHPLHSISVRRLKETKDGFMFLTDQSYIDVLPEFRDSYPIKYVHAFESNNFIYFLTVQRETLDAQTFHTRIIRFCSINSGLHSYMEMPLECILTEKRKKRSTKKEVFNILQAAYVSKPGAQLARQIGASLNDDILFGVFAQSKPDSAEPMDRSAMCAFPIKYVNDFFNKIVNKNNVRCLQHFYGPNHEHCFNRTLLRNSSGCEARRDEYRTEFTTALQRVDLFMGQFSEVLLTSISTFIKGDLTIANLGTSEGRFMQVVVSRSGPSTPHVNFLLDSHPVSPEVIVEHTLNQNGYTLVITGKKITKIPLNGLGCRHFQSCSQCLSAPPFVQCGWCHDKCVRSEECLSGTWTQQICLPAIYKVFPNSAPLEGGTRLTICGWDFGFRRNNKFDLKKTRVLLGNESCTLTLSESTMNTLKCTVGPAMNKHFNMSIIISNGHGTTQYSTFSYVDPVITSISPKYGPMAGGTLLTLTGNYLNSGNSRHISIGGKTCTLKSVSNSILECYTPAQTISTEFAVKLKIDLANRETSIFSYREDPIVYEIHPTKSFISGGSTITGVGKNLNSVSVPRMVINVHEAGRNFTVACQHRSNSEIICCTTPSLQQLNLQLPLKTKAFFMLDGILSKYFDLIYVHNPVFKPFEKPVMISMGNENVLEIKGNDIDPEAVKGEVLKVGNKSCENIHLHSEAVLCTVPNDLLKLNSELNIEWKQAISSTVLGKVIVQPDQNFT
# test.details: competition filter binding
# particulars: vs 5'-32P-trCLN3; ~50 nM cMet; four 5'-terminal 5-(1-dodecynyl)-dU (C12 lipid; printed as LLLL, written as UUUU); 1x PBS pH 7.4, 2 mM MgCl2, 0.1 mg/mL E. coli tRNA, 0.25 mg/mL BSA, 37 C, 30 min; ~25 fmol 32P-trCLN3, ~50 nM cMet, 25 uL, nitrocellulose filter
readout.kind: pIC50
Hey, just a heads up that pIC50 is the negative log base 10 of the concentration in molar.

Q: Return reported pIC50. Input sequence: UUUUTGGATGGTAGCTCGGTCGGGGTGGGTGGGTTGGCAAGTCT [trCLN3-L4]
Ans: 7.37
